meta.source: the supplement of paper PMC10567573

Would you kindly list protein stability index for each of these variants?
B1: PLD5 (parent)
chain: KRTYWPDLDAKIREALVLRSVRVR

Variants of: B1
Experiment notes: protein stability index of a GFP-peptide fusion (GPS, HEK-293T) (PSI 1-6); higher = more stable;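 also: lentivirally expressed fusions sorted by FACS into six bins by GFP to DsRed ratio, PSI derived from sequencing read proportions per bin multiplied by bin number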
Test settings: c terminus: a fixed tail appended
One number for each entry.

Example cases with answers are listed next.
{"columns": ["Sequence code", "Result"],
 "data": [
  ["KRTYWPDLDAKIRPALVLRSVRVR", 2.13],
  ["KRTYWPDLDAKIREALVERSVRVR", 2.93],
  ["KRTYWPDLDAKIREALVLRSVRFR", 1.9]
]}

Hello, I would appreciate it if you could give protein stability index for each entry below.
1. KRTYWPDLDAKIREALVGRSVRVR
2. KRQYWPDLDAKIREALVLRSVRVR

output:
1: 1.91; 2: 2.91

// for each variant below, give its protein stability index
1. KRTYWPDLDAKIREALVTRSVRVR
2. KRTYQPDLDAKIREALVLRSVRVR

output:
1.71
2.15

Give protein stability index for all variants that follow.
1. KRTYWPDLDAKIREALVLRSNRVR
2. KRTWWPDLDAKIREALVLRSVRVR
3. KVTYWPDLDAKIREALVLRSVRVR
4. KRTYWPDLDAKIREALVLRSVAVR
5. KQTYWPDLDAKIREALVLRSVRVR

output:
2.48
1.75
2.43
1.45
2.31
